Molecular target: SARS-CoV-2 Spike (S) protein, strain BetaCoV/Wuhan-Hu-1/2019, full length (SARS-CoV-2 Wuhan-Hu-1, UniProt P0DTC2 14-1273)
Experiment: cell-based or functional assay
Form field: Percent neutralization of infection, dilution 6 (one value per entry).
test-readout: Percent neutralization of infection, dilution 6 (%)

SARS-CoV-2 S304 mAb (B cell supernatant) (antibody, V domains shown) VH: EVQLVESGGGLVQPGGSLRLSCAASGFTFSSYDMHWVRQTTGKGLEWVSTIGTAGDTYYPDSVKGRFTISREDAKNSLYLQMNSLRAGDTAVYYCARGDSSGYYYYFDYWGQGTLLTVSS VL: DIQMTQSPSSLSAAVGDRVTITCRASQSIGSYLNWYQQKPGKAPKLLIYAASSLQSGVPSRFSGSGSGTDFTLTISSLQPEDFAIYYCQQSYVSPTYTFGPGTKVDIK    25
SARS-CoV-2 S306 mAb (B cell supernatant) (antibody, V domains shown) VH: QVQLVQSGAEVKKPGASVKVSCKASTYTFTSFGISWVRQAPGQGLEWMGWITTYSGDTNYAQKFQGRVTMTTDTSTNTAYMELRSLRSDDTAVYYCASDYFDSSGYYHSFDYWGQGTLVTVSS VL: EIVLTQSPDTLSLSPGERATLSCRASQSVSSYLAWYQQRPGQAPRLLIYDASKRATGIPARFSGSGSGTDFTLTISSLEPEDFAVYYCQQRSNWPPGCSFGQGTKVEIK    15
SARS-CoV-2 S303 mAb (B cell supernatant) (antibody, V domains shown) VH: EVQLVESGGGLVKPGGSLRLSCAASGFTFLTYSMNWVRQTPGKRLQWVSAISGSGGATYYADSVKGRFTISRDNSKNTLYLQMNTVTADDTAIYFCARERDDIFPMGLNAFDIWGQGAMVIVSS VL: DIQMTQSPSTLSASVGDRVTITCRASQSISNWLAWYQQKPGKAPKLLIYKASSLESGVPSRFSGSGSGTEFTLTISSLQPDDSATYYCQQYDTYSWTFGQGTKVEIK    5
SARS-CoV-2 S308 mAb (B cell supernatant) (antibody, V domains shown) VH: QVQLVESGGGVVQPGRSLRLSCAASRFTFSSYGMHWVRQAPGKGLEWVAVIWHDGNNKHYGDSVKGRVTISRDNSKNTLYLQMTSLRAEDTAVYYCARAVTTFKGSGRARMRGMDVWGQGTTVTVSS VL: DIQLTQSPSFLSASVGDRVTITCRASQGINTYLAWYQQKPGKAPKLLIYAASTLQSGVPSRFSGSGSGTEFTLTISSLQPEDFATYYCQHLDTYPFTFGPGTKVDIK    19
